- Test system: HSV-1 ACV resistant
- Test Name: activity selectivity assay, HSV-1 ACV resistant
- Format: cell-based
- Run Parameters: HSV-1 ACV resistant

Compound: Nc1nc2c(ncn2COCCO)c(=O)[nH]1 [Acyclovir, reference compound]
IC50: > 25 µM

---

- System: HSV-1
- Test Name: activity selectivity assay, HSV-1 infected Vero cells
- Assay type: cell-based
- Run Parameters: Human alphaherpesvirus 1
Overview of recorded IC50 for various compounds
Measured Quantity: IC50

Compound: Cc1nc(N(C)C(=O)Cc2ccc(-c3ccccn3)cc2)sc1[S@](C)(=N)=O (single isomer, unassigned) [Example 7c(+)]
Measured Quantity: IC50
Result: 300 to 750 nM
--
Compound: CN(C(=O)Cc1ccc(-c2cc(F)ccc2F)cc1)c1nc(CO)c([S@](C)(=N)=O)s1 (single isomer, unassigned) [Example 10b]
Measured Quantity: IC50
Result: 1000 to 5000 nM
--
Compound: Cc1nc(N(C)C(=O)Cc2ccc(-c3cc(F)ccc3F)cc2)sc1[S@@](=N)(=O)C1CC1 (single isomer, unassigned) [Example 7a(−)]
Measured Quantity: IC50
Result: 20 to 50 nM
--
Compound: Cc1nc(N(C)C(=O)Cc2ccc(-c3cc(F)ccc3F)cc2)sc1[S@](=N)(=O)C1CC1 (single isomer, unassigned) [Example 7a(+)]
Measured Quantity: IC50
Result: 250 to 750 nM
--
Compound: Cc1nc(N(C)C(=O)Cc2ccc(-c3ccccn3)cc2)sc1[S@](C)(=N)=O (racemic) [Example 7c]
Measured Quantity: IC50
Result: 150 to 600 nM
--
Compound: Cc1nc(N(C)C(=O)Cc2ccc(-c3cc(F)ccc3F)cc2)sc1[S@@](C)(=N)=O [Example 7(−)]
Measured Quantity: IC50
Result: 10 to 50 nM
--
Compound: Cc1nc(N(C)C(=O)Cc2ccc(-c3cc(F)ccc3F)cc2)sc1[S@](C)(=N)=O [Example 7(+)]
Measured Quantity: IC50
Result: 30 to 200 nM
--
Compound: Cc1nc(N(C)C(=O)Cc2ccc(-c3cc(F)ccc3F)cc2)sc1S(=N)(=O)C1CC1 (stereo not drawn)
Measured Quantity: IC50
Result: 30 to 100 nM
--
Compound: CC(=O)N=[S@](C)(=O)c1sc(N(C)C(=O)Cc2ccc(-c3cc(F)ccc3F)cc2)nc1C
Measured Quantity: IC50
Result: 10000 to 50000 nM
--
Compound: Cc1nc(N(C)C(=O)Cc2ccc(-c3ccccn3)cc2)sc1[S@](=N)(=O)C1CC1 (single isomer, unassigned) [Example 7b(+)]
Measured Quantity: IC50
Result: 500 to 1500 nM
--
Compound: CN(C(=O)Cc1ccc(-c2cc(F)ccc2F)cc1)c1nc(CO)c([S@@](C)(=N)=O)s1 (single isomer, unassigned) [Example 10a]
Measured Quantity: IC50
Result: 50 to 250 nM
--
Compound: Cc1nc(N(C)C(=O)Cc2ccc(-c3cc(F)ccc3F)cc2)sc1S(C)(=N)=O (racemic)
Measured Quantity: IC50
Result: 25 to 100 nM
--
Compound: Cc1nc(N(C)C(=O)Cc2ccc(-c3ccccn3)cc2)sc1[S@@](C)(=N)=O (single isomer, unassigned) [Example 7c(−)]
Measured Quantity: IC50
Result: 75 to 300 nM
--
Compound: Cc1nc(N(C)C(=O)Cc2ccc(-c3ccccn3)cc2)sc1[S@@](=N)(=O)C1CC1 (single isomer, unassigned) [Example 7b(−)]
Measured Quantity: IC50
Result: 75 to 250 nM
--
Compound: Cc1nc(N(C)C(=O)Cc2ccc(-c3ccccn3)cc2)sc1S(=N)(=O)C1CC1 (racemic)
Measured Quantity: IC50
Result: 100 to 400 nM
